Test system: E. coli AG100
Assay: Broth microdilution MIC, E. coli AG100 (wild-type parent)
Type: cell-based
Conditions: Escherichia coli; wild-type parent E. coli AG100, broth microdilution; read-out: MIC E. coli AG100
Answer each item with its documented MIC.

[[record]]
compound = "CCN1CCN(C(=O)N[C@H](C(=O)N[C@H]2Cc3cccc(C(=O)O)c3OB2O)c2ccc(O)c(F)c2)C(=O)C1=O"
observed = "> 128 µg/mL"

[[record]]
compound = "CCN1CCN(C(=O)N[C@@H](C(=O)N[C@H]2Cc3ccc(F)c(C(=O)O)c3OB2O)c2c(F)cc(O)c(O)c2Cl)C(=O)C1=O"
observed = "0.5 to 1 µg/mL"

[[record]]
compound = "O=C(O)c1cccc2c1OB(O)[C@@H](NC(=O)C(NC(=O)N1CCN(CCF)C(=O)C1=O)c1ccc(O)cn1)C2 (stereo partly shown)"
observed = "32 to 64 µg/mL"

[[record]]
compound = "NCCN1CCN(C(=O)N[C@H](C(=O)N[C@H]2Cc3cccc(C(=O)O)c3OB2O)c2ncc(O)cc2F)C(=O)C1=O"
observed = "32 to 64 µg/mL"

[[record]]
compound = "O=C(O)c1cccc2c1OB(O)[C@@H](NC(=O)C(NC(=O)N1CCN(CCF)C(=O)C1=O)c1ccc(O)c(O)c1Cl)C2 (stereo partly shown)"
observed = "2 to 4 µg/mL"

[[record]]
compound = "CCN1CCN(C(=O)NC(C(=O)N[C@H]2Cc3cccc(C(=O)O)c3OB2O)c2ccc(OC)c(S(N)(=O)=O)c2)C(=O)C1=O (stereo partly shown)"
observed = "8 to 16 µg/mL"

[[record]]
compound = "NCCN1CCN(C(=O)N[C@@H](C(=O)N[C@H]2Cc3cccc(C(=O)O)c3OB2O)c2ncc(O)cc2F)C(=O)C1=O"
observed = "8 to 16 µg/mL"

[[record]]
compound = "CCN1CCN(C(=O)NC(C(=O)N[C@H]2Cc3cccc(C(=O)O)c3OB2O)c2ccc(O)c(O)c2F)C(=O)C1=O (stereo partly shown)"
observed = "2 to 4 µg/mL"


Could you report MIC for every entry in the following list?
1. CCN1CCN(C(=O)NC(C(=O)N[C@H]2Cc3cccc(C(=O)O)c3OB2O)c2ccc(O)c(O)c2Cl)C(=O)C1=O (stereo partly shown)
2. O=C(O)c1cccc2c1OB(O)[C@@H](NC(=O)C(NC(=O)N1C[C@@H]3CCCN3C(=O)C1=O)c1ncc(O)cc1F)C2 (stereo partly shown)
3. CCN1CCN(C(=O)NC(C(=O)N[C@H]2Cc3cccc(C(=O)O)c3OB2O)c2cccc(N)n2)C(=O)C1=O (stereo partly shown)
4. CCN1CCN(C(=O)NC(C(=O)N[C@H]2Cc3cccc(C(=O)O)c3OB2O)c2nc(N)sc2F)C(=O)C1=O (stereo partly shown)
5. CCN1CCN(C(=O)NC(C(=O)N[C@H]2Cc3cccc(C(=O)O)c3OB2O)c2ccc(C(=O)O)cc2)C(=O)C1=O (stereo partly shown)
6. Nc1ncc(C(NC(=O)N2CCN(CCF)C(=O)C2=O)C(=O)N[C@H]2Cc3cccc(C(=O)O)c3OB2O)s1 (stereo partly shown)
7. CCN1CCN(C(=O)NC(C(=O)N[C@H]2Cc3cccc(C(=O)O)c3OB2O)c2ccc(O)cn2)C(=O)C1=O (stereo partly shown)

1. 32 to 64 µg/mL
2. > 128 µg/mL
3. 32 to 64 µg/mL
4. 8 to 16 µg/mL
5. 32 to 64 µg/mL
6. 32 to 64 µg/mL
7. 32 to 64 µg/mL

Quick batch: MIC for everything below.
1. CCN1CCN(C(=O)NC(C(=O)N[C@H]2Cc3cccc(C(=O)O)c3OB2O)c2ncc(N)cc2F)C(=O)C1=O (stereo partly shown)
2. CCN1CCN(C(=O)NC(C(=O)N[C@H]2Cc3cccc(C(=O)O)c3OB2O)c2ccc(O)cc2)C(=O)C1=O (stereo partly shown)
3. CCN1CCN(C(=O)N[C@H](C(=O)N[C@H]2Cc3ccc(F)c(C(=O)O)c3OB2O)c2ccc(O)c(O)c2Cl)C(=O)C1=O
4. NS(=O)(=O)c1ccc(C(NC(=O)N2CCN(CCF)C(=O)C2=O)C(=O)N[C@H]2Cc3cccc(C(=O)O)c3OB2O)cc1F (stereo partly shown)

1: 32 to 64 µg/mL; 2: 32 to 64 µg/mL; 3: 8 to 16 µg/mL; 4: 32 to 64 µg/mL
